Biological target: Human Cav 2.2 channels (Homo sapiens, UniProt Q00975)
Sequence (Q00975 whole entry): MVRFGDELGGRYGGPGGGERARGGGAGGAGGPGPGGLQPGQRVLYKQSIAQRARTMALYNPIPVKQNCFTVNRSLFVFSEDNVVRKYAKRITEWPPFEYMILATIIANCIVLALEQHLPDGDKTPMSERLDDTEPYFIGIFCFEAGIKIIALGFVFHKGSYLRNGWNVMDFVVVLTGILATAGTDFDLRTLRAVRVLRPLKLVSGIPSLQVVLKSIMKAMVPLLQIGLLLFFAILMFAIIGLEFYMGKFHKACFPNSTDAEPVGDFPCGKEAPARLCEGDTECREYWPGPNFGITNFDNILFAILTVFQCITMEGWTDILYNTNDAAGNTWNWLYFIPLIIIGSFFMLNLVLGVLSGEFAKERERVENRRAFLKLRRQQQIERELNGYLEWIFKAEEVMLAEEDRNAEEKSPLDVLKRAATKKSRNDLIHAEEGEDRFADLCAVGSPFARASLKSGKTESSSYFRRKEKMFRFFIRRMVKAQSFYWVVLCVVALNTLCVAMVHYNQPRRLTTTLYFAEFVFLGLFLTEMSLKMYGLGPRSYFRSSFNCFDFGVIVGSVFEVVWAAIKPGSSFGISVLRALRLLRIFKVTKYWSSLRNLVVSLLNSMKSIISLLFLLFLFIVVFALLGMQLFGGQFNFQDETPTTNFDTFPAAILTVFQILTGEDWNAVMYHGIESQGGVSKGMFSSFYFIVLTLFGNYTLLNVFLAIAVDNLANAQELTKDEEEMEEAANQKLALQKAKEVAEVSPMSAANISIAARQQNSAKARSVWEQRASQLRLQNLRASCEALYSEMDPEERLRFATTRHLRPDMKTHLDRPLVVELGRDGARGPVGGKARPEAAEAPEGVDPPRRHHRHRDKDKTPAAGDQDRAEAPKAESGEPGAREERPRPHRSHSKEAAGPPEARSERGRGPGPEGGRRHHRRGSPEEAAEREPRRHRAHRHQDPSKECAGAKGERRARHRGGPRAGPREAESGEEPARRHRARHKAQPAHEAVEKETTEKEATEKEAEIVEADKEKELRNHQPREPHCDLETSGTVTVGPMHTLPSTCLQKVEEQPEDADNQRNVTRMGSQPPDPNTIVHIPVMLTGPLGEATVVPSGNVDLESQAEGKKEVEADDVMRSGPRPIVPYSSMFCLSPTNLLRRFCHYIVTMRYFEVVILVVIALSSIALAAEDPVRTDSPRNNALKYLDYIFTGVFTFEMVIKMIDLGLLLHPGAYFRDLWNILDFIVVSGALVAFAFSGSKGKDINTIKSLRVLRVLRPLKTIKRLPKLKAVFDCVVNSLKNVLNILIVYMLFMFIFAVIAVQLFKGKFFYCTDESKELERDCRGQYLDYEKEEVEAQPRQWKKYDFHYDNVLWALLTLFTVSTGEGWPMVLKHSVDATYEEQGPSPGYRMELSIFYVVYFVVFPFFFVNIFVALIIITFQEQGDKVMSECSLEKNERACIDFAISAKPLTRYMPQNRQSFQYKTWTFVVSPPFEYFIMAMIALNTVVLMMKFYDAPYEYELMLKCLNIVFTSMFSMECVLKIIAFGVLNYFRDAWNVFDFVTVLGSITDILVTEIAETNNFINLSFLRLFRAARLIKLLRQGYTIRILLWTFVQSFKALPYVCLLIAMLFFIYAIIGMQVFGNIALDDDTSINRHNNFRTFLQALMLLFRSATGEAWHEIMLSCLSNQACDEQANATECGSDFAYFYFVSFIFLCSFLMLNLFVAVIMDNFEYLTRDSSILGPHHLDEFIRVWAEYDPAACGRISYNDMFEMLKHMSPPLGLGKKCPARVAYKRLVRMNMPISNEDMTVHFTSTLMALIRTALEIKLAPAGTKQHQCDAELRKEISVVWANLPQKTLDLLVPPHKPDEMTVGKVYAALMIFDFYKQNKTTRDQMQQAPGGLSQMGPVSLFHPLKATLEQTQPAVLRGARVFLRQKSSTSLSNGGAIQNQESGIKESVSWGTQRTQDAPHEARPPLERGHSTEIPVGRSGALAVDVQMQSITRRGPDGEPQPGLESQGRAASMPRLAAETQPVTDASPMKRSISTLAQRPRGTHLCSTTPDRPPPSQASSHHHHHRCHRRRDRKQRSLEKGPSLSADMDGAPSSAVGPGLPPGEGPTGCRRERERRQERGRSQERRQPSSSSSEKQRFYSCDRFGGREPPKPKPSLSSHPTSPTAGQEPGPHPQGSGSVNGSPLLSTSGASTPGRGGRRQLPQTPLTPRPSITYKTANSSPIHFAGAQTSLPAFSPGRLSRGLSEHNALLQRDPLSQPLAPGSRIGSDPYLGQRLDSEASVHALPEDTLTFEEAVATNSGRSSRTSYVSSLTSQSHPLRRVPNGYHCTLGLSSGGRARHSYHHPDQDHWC
Sequence (P54289 25-1103 partner): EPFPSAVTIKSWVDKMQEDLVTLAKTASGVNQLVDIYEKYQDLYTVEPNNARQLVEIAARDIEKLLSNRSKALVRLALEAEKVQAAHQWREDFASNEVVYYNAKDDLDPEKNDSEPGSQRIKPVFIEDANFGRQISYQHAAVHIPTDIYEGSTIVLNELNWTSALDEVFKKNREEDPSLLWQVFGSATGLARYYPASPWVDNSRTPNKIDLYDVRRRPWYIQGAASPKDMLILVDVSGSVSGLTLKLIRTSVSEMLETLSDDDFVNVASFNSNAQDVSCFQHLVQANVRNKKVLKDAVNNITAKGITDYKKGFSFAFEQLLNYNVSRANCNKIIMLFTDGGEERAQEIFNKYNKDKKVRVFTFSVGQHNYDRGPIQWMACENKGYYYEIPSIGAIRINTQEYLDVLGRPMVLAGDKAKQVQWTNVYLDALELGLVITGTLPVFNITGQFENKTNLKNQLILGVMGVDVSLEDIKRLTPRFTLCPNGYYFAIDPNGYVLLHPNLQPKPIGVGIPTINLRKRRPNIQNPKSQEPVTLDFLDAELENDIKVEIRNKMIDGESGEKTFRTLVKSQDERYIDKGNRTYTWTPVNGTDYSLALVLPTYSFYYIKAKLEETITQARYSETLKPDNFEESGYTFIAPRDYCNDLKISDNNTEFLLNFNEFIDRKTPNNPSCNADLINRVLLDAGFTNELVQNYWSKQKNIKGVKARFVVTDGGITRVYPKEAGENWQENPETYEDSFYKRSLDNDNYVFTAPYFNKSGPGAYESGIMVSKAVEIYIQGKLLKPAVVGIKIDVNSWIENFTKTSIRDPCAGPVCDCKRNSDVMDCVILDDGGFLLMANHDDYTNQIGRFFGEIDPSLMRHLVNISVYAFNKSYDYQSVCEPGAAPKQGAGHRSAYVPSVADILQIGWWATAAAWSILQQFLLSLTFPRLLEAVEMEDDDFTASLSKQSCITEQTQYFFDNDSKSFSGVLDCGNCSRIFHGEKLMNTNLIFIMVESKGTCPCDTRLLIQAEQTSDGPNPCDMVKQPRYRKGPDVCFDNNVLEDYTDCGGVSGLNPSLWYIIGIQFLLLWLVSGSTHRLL
Sequence (P54284 whole entry partner): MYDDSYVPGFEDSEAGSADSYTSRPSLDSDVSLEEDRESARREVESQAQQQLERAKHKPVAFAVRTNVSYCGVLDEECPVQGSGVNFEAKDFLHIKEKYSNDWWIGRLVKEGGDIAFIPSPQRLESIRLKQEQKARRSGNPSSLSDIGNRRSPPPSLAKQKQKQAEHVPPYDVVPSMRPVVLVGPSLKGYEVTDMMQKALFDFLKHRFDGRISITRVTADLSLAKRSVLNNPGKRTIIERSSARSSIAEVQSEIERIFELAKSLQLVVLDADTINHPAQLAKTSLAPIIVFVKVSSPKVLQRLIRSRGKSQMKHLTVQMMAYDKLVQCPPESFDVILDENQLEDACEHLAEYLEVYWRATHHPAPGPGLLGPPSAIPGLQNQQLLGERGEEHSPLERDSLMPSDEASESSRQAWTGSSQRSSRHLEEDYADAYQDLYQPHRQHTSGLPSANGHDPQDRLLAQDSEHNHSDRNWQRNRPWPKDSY
Assay: Fluorescent assay for CaV2.2 channels using potassium depolarization (VIPR/FLIPR)
Type: cell-based
Settings: FLIPR data; inactivated state; read-out: CAv2.2 IC50 Inact.
Binarize IC50 at 500 nM; below is fulfilled, at or above is not fulfilled.

Look over these answered cases.
{"structure": "N[C@H]1CCCC[C@@H]1C(=O)NC[C@H]1C[C@H](S(=O)(=O)c2cccc(Cl)c2)C1", "class.label": "not fulfilled"}
{"structure": "CC(C)([C@H]1C[C@@H](CNC(=O)c2ccc(F)c(Cl)c2)C1)S(=O)(=O)c1cccc(C(F)(F)F)c1", "class.label": "fulfilled"}
{"structure": "CC(C)([C@H]1C[C@H](C(=O)Nc2ccc(C(F)(F)F)cc2)C1)S(=O)(=O)c1cccc(C(F)(F)F)c1", "class.label": "fulfilled"}

Dear reviewer, please state whether O=C(NC[C@H]1C[C@H](S(=O)(=O)c2cc(F)cc(C(F)(F)F)c2)C1)c1ccc(C(F)(F)F)nc1 has IC50 strictly beneath 500 nM.
not fulfilled

Below 500 nM on IC50? Entry O=C(NC[C@H]1C[C@H](S(=O)(=O)c2cccc(C(F)(F)F)c2)C1)c1ccc(C(F)(F)F)cc1
fulfilled

Threshold test, IC50 < 500 nM: CC(C)(C[C@H]1C[C@@H](NC(=O)[C@H]2CCCC[C@@H]2N)C1)S(=O)(=O)c1cccc(C(F)(F)F)c1
not fulfilled

Does O=C(NC[C@H]1C[C@H](S(=O)(=O)c2cccc(C(F)(F)F)c2)C1)c1ccc(C(F)(F)F)nc1 have IC50 strictly under 500 nM?
fulfilled

For this molecule, is IC50 lower than 500 nM? O=C(NC[C@H]1C[C@H](S(=O)(=O)c2cccc(C(F)(F)F)c2)C1)c1ncc(C(F)(F)F)cn1
not fulfilled

Does this molecule meet the criterion IC50 < 500 nM? CC(C)([C@H]1C[C@@H](CNC(=O)c2ccnc(C(F)(F)F)c2)C1)S(=O)(=O)c1cccc(C(F)(F)F)c1
not fulfilled
